Let's look at some variants and their measured protein stability index.
B1: VDR (parent)
chain: VTLELSQLSMLPHLADLVSYSIQK

variants of: B1; experiment: protein stability index of a GFP-peptide fusion (GPS, HEK-293T) (PSI 1-6); higher = more stable; conditions: c terminus: a fixed tail appended;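 also: lentivirally expressed fusions sorted by FACS into six bins by GFP to DsRed ratio, PSI derived from sequencing read proportions per bin multiplied by bin number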

- mutantDesignation: "T2F"
  protein stability index: 3.02
- mutantDesignation: "L11P"
  protein stability index: 3.08
- mutantDesignation: "L17C"
  protein stability index: 3.09
- mutantDesignation: "L8D"
  protein stability index: 2.91

Entry source: the supplement of paper PMC10567573
